Test: label from the status in PepcDB records
Property Measured: protein production

MHTTFTFHLYPWILKYLKGGEGNFKYLHQENPKQEITDSSDKMSFWKDRMLIIPAVDIKDGKCVQLVQGKPGTEQVVLDDPAGVAGRWESLGAETIHVVDLDGALGLEKNTGILKEITERVSVPLQIGGGIRSREYAGKLLDMGFERVILGTMAIENPAIVEELAGEYGSERIMVSLDSRDSRVVIRGWTEKVPFTAEEMARKFQERGAGSILFTNVDFEGLLSGFDLKPVSELVEAVEIPVIYSGGVSSLNDLRMLQGTGVMGVVIGSAIYRGLIDLTEALKYQDLK ... failed
GTIGPVADAEPHAAALGEAFQLTNFLRDVGEDLDRGRVYLPADELAAFGVDTELLAHSRRSGTTDQRIVRALAHLISVTRSVYRDAEPGIAMLDRRVQPGIRTAFVLYSRILDEIERGGYRVLDRRATVSRRNRWATALPQFARLAV ... failed
MVLLMAVSLSFAQMKNVKEAKSIASDVKPNFNQAEKLINEAIKNPETKDLPDTWDVAGFIQKRFIEEERDKKGVLKQPFDTLKAYNSILKMFEYYTKCDDLAQVPNEKGKIKNKYRKANASTILVERPNLINGGIQFFNLDKNKEALQFFATYVESASYPMLAEQNLAKTDTLLAQIAYYATLAADRVGDKDAIIKYAPAALDDKDGGKFAMQLMADAYKAKGDTAAWVKSLEEGILKFPGNDYFFANLVDYYTSSNQASKAMEFADRMLSTDANNKLYLYVKAYLYHNMKEYDNAIEFYKKAIAADPEYAEAYSNVGLVYLMKAQDYADKATTDINDPKYAEAQATVKKFYEEAKPFYEKARALKPDQKDLWLQGLYRVYYNLNMGPEFEEIDKMMK ... failed
